These data points were gathered from patent US20240376185A1.

Exercise: for every item that follows, state its recorded absorbance at 450 nm.
biological target: swine IgG; experiment: ELISA, coated antigen, E. coli supernatant
Give bare numbers, in A450.

Sample records with absorbance at 450 nm:
SVG23 (VHH, not shown: large carriers) VHH: QVQLQESGGGLVQAGGSLRLSCAASGRAFGSYTMNWFRQAPGKERDFVAGIMSSGMNTWYADSVKGRFTISRDNAKNTVYLQMNSLKPEDTAVYYCASRPRSTMTSGRYLYDYWGQGTQVTVSS ... 0.092
SVG06 (VHH) VHH: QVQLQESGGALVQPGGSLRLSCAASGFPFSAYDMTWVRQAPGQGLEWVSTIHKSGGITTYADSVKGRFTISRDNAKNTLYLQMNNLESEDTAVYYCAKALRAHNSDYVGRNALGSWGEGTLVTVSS ... 0.131
SVG19 (VHH, not shown: large carriers) VHH: QVQLQQSGGGLVQPGGSLRLSCAASGFTFSSYAMSWVRQAPGKGLEWVSAINSGGGSTSYADSVKGRFTISRDNAKNTLYLQMNSLKPEDTAVYYCAKDFDPWGVGTGGYDYWGQGTQVTVSS ... 0.146

Attention now turns to another entry.
Entry under review: SVG07 (VHH, not shown: large carriers) VHH: QVQLQESGPGLVKPSQTLSLTCTVSGGSITTTAYAWSWIRQPPGKGLEWMGAIRFDGTTDYSPSLKSRISISRDTSNNQFSLRMSSVTPEDTAVYYCARYGVVSDHGGLDYWGQGTQVTVSS . Reported absorbance at 450 nm?
0.103
